Cited source for all entries: patent US12428427B2

Exercise: state measured IC50 for each of the compounds provided.
# Measured on: PDL1/PD1 (Homo sapiens)
# Test details: PDL1/PD1 Binding Assay
# Setup conditions: PDL1-6×His 0.3 nM, PD1-Fc-Avi-Biotin 2.5 nM, Acceptor/Donor beads; read-out: PD-1/PD-L1 PPI IC50

Input line: Which IC50 is reported for this compound? COc1nc(-c2cccc(-c3cccc(NC(=O)c4ccnn(C)c4=O)c3Cl)c2Cl)ccc1CN[C@@H]1CCOC[C@@H]1O [Compound C-1]
Output line: ≤ 10 nM

Input line: Also check COc1nc(-c2cccc(-c3cccc(NC(=O)c4ccnn(C)c4=O)c3Cl)c2Cl)ncc1CN[C@@H]1CCOC[C@@H]1O [Compound C-81]
Output line: ≤ 10 nM

Input line: Also check COc1nc(-c2cccc(-c3cccc(NC(=O)c4ccnn(C)c4=O)c3Cl)c2Cl)ccc1CNC[C@H](O)C(=O)O [Compound C-38]
Output line: ≤ 10 nM

Input line: Also check COc1nc(-c2cccc(-c3cccc(NC(=O)c4ccnn(C)c4=O)c3Cl)c2Cl)ccc1CNC[C@H](C)O [Compound C-3]
Output line: ≤ 10 nM

Input line: Also check COc1nc(-c2cccc(-c3cccc(NC(=O)c4ccnn(C)c4=O)c3Cl)c2Cl)ccc1CN1C[C@@H](C(=O)O)C(C)(C)C1 [Compound C-48]
Output line: ≤ 10 nM

Input line: Also check COc1nc(-c2cccc(-c3cccc(NC(=O)c4ccnn(C)c4=O)c3Cl)c2Cl)ccc1CNC1CC1 [Compound C-6]
Output line: ≤ 10 nM

Input line: Also check COc1nc(-c2cccc(-c3cccc(NC(=O)c4ccnn(C)c4=O)c3C)c2Cl)ccc1CNC[C@@H]1CCC(=O)N1 [Compound B-6]
Output line: ≤ 10 nM

Input line: Also check COc1nc(-c2cccc(-c3cccc(NC(=O)c4ccnn(C)c4=O)c3Cl)c2Cl)ccc1CN1CCCC[C@@H]1C(=O)O [Compound C-11]
Output line: ≤ 10 nM

Input line: Also check COc1nc(-c2cccc(-c3cccc(NC(=O)c4ccnn(C)c4=O)c3Cl)c2Cl)ncc1CN1CC(O)C1 [Compound C-82]
Output line: ≤ 10 nM

Input line: Also check COc1nc(-c2cccc(-c3cccc(NC(=O)c4ccnn(C)c4=O)c3Cl)c2Cl)ccc1CN1CCC[C@H]1CC(=O)O [Compound C-34]
Output line: ≤ 10 nM

Input line: Also check COc1nc(-c2cccc(-c3cccc(NC(=O)c4ccnn(C)c4=O)c3Cl)c2Cl)ccc1CN1CCN(C(=O)OC(C)(C)C)[C@H](C(=O)O)C1 [Compound C-23]
Output line: ≤ 10 nM

Input line: Also check COc1nc(-c2cccc(-c3cccc(NC(=O)c4ccnn(C)c4=O)c3Cl)c2Cl)ccc1CNCCO [Compound C-2]
Output line: ≤ 10 nM

Input line: Also check COc1nc(-c2cccc(-c3cccc(NC(=O)c4ccnn(C)c4=O)c3Cl)c2Cl)ccc1CN1C(=O)O[C@H]2COCC[C@H]21 [Compound E-1]
Output line: ≤ 10 nM

---

# Measured on: PD-1/PD-L1 interaction (Homo sapiens)
# Construct: expressed in transfected cells; Jurkat cells (PD-1 plus NFAT-luciferase)
# Sequence (Q9NZQ7 19-290): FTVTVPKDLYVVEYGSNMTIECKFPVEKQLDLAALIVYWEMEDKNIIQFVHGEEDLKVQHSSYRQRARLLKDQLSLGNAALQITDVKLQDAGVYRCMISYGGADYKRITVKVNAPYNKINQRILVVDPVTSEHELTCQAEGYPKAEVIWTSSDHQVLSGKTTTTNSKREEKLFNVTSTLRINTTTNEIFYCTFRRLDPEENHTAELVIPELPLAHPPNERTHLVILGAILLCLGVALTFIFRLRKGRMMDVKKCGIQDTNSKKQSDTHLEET
# Test details: PD-1/PD-L1 NFAT Reporter Assay
# Format: cell-based
# Setup conditions: co-culture of PD-L1 expressing CHO cells and PD-1 overexpressing Jurkat cells, 6 hrs, NFAT luciferase
Exercise: state measured EC50 for each of the compounds provided.

Input line: Report EC50 for CCOC(=O)C1CN(Cc2c(C)cc(-c3cccc(-c4cccc(NC(=O)c5ccnn(C)c5=O)c4C)c3Cl)nc2OC)C1 tested on PD-1/PD-L1 interaction (Homo sapiens).
Output line: 10 to 100 nM

Input line: Also check COc1nc(-c2cccc(-c3cccc(NC(=O)c4ccnn(C)c4=O)c3Cl)c2Cl)ccc1CN1CC2(C(=O)O)CCC1CC2
Output line: 100 to 1000 nM

Input line: Also check COc1nc(-c2cccc(-c3cccc(NC(=O)c4ccnn(C)c4=O)c3Cl)c2Cl)ccc1CN1CCCC[C@@H]1C(=O)O
Output line: 100 to 1000 nM

Input line: Also check COc1nc(-c2cccc(-c3cccc(NC(=O)c4ccnn(C)c4=O)c3Cl)c2Cl)cnc1CN[C@@H]1CCOC[C@@H]1O
Output line: 10 to 100 nM

Input line: Also check COc1cc(C(=O)Nc2cccc(-c3cccc(-c4ccc(CN[C@@H]5CCOC[C@@H]5O)c(OC)n4)c3Cl)c2Cl)c(=O)n(C)n1
Output line: 10 to 100 nM

Input line: Also check COc1nc(-c2cccc(-c3cccc(NC(=O)c4ccnn(C)c4=O)c3Cl)c2Cl)ccc1CN1CC[C@H](O)C1
Output line: ≤ 10 nM

Input line: Also check COc1nc(-c2cccc(-c3cccc(NC(=O)c4ccnn(C)c4=O)c3C)c2Cl)ccc1CN1CC[C@@H](O)C1
Output line: ≤ 10 nM

Input line: Also check COc1nc(-c2cccc(-c3cccc(NC(=O)c4ccnn(C)c4=O)c3Cl)c2Cl)ccc1CNC[C@H](C)C(=O)O
Output line: 10 to 100 nM

Input line: Also check COc1nc(-c2cccc(-c3cccc(NC(=O)c4ccnn(C)c4=O)c3Cl)c2Cl)ccc1CNCC(C)(C)C(=O)O
Output line: 10 to 100 nM

Input line: Also check COC(=O)C12CCC(CC1)N(Cc1ccc(-c3cccc(-c4cccc(NC(=O)c5ccnn(C)c5=O)c4Cl)c3Cl)nc1OC)C2
Output line: 100 to 1000 nM

Input line: Also check COc1nc(-c2cccc(-c3cccc(NC(=O)c4ccnn(C)c4=O)c3C)c2Cl)ccc1CN1CC[C@H](O)C1
Output line: ≤ 10 nM

Input line: Also check COc1nc(-c2cccc(-c3cccc(NC(=O)c4ccnn(C)c4=O)c3Cl)c2Cl)ccc1CNC[C@@H](C)O
Output line: ≤ 10 nM

Input line: Also check CCOC(=O)[C@H]1CCN(Cc2ccc(-c3cccc(-c4cccc(NC(=O)c5ccnn(C)c5=O)c4C)c3Cl)nc2OC)C1
Output line: 10 to 100 nM
